Here the recorded IC50 is given for each entry.
# test-system: YTH domain of YTHDF1 / biotinylated RNA probe 5′-Bi-CCGAm6ACUGUC-3′ (Homo sapiens, UniProt Q9BYJ9)
# Construct: The human YTHDF1 YTH domain (amino acids 365–554, PDB: 4RCJ)
# Sequence (Q9BYJ9 365-554): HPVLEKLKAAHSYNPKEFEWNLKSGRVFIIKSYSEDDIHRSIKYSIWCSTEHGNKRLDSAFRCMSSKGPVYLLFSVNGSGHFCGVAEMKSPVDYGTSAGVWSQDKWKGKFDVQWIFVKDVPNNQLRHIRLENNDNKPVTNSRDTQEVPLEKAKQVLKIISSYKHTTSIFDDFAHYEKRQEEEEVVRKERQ
# experiment-notes: AlphaScreen competitive assay, saturation binding
# measurement-context: 50 nM RNA, 50 nM protein, compound 0–100 μM
Report only the number, with the unit µM understood.

In [3]: df
Out[3]:
                      molecule  attribute_measured  endpoint_unit  value_observed
0  O=c1c2ccccc2[se]n1-c1ccccc1                IC50             µM            3.57

Return the recorded IC50 value; entry: O=c1c2ccccc2sn1-c1ccccc1 [Compound 2, 2-Phenylbenzo[d]isothiazol-3(2H)-one]
23.1

---

Here the recorded EC50 is given for each entry.
# test-system: YTHDF1 YTH domain (Homo sapiens, UniProt Q9BYJ9)
# Construct: The human YTHDF1 YTH domain (amino acids 365–554, PDB: 4RCJ); host or cells: E. coli BL21(DE3)
# experiment-notes: Tryptophan fluorescence quenching assay
# Format: binding
# measurement-context: 5 μM protein, read-out: EC50 (tryptophan quenching)
Report only the number, with the unit µM understood.

In [3]: df
Out[3]:
                                   molecule  value_observed
0  O=c1c2ccccc2[se]n1-c1ccccc1 [Compound 1, 2-phenyl-1,2-benzisoselenazol-3(2H)-one]            1.63

// switching to the query molecule
Return reported EC50 for target or system YTHDF1 YTH domain (Homo sapiens, UniProt Q9BYJ9), item CNc1ncnc2c1ncn2[C@@H]1O[C@H](CO)[C@@H](O)[C@H]1O [m6A, N^6-methyladenosine] .
596

---

# test-system: YTHDF1 YTH domain (Homo sapiens, UniProt Q9BYJ9)
# Construct: The human YTHDF1 YTH domain (amino acids 365–554, PDB: 4RCJ); host or cells: E. coli BL21(DE3)
# Sequence (Q9BYJ9 365-554): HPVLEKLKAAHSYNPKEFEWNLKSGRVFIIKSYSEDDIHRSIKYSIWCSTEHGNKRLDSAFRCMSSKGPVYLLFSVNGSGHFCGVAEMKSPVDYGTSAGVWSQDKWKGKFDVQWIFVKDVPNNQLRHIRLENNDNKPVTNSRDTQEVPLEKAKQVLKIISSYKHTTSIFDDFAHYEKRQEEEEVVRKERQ
# experiment-notes: Tryptophan fluorescence quenching assay
# Format: binding
# measurement-context: Table 1, read-out: EC50 (μM) (Tryptophan quenching)
Field: class. Source value: EC50. Ranges: low range: < 2 µM; mid range: ≥ 2 µM and < 3 µM; high range: ≥ 3 µM

Take a look at these entries with their results.
In [3]: df
Out[3]:
                         molecule                               test_system  assigned_label
0       O=c1c2ccccc2sn1CCN1CCOCC1  YTHDF1 YTH domain (Homo sapiens, UniProt Q9BYJ9)       mid range
1        CCN(CC)CCn1sc2ccccc2c1=O  YTHDF1 YTH domain (Homo sapiens, UniProt Q9BYJ9)       low range
2     O=c1c2ccccc2[se]n1-c1ccccc1  YTHDF1 YTH domain (Homo sapiens, UniProt Q9BYJ9)       low range
3         O=C1c2ccccc2CN1c1ccccc1  YTHDF1 YTH domain (Homo sapiens, UniProt Q9BYJ9)      high range
4  O=c1c2ccccc2[se]n1-c1ccc(F)cc1  YTHDF1 YTH domain (Homo sapiens, UniProt Q9BYJ9)       low range

Note: place this molecule into its band. Item: O=c1c2ccccc2[se]n1CCN1CCOCC1
high range

Where these numbers come from: paper PMC9578143
